Test system: UACC-62 melanoma
Test: NCI-60 one-dose screen, 48 h
Details: 10 µM unless noted
About 83,000 compounds went through this panel and 20% of them were active in at least one assay; those are over-represented in the sample as a whole. Activity calls are given as the source filed them. Rule for the calls: active = growth percent below 10; inactive = the rest.
Give one outcome, nothing more. List: label 1 for active, label 0 for inactive

Solved entries (count: 3):
# compound, target_of_assay, class
rows = [
    ("CC(=O)Oc1csc(N(C(C)=O)c2cc(C(=O)O)cc(C(=O)O)c2)n1", "UACC-62 melanoma", "label 0"),
    ("NC(=O)c1c(NC(=S)Nc2ccc(OC(F)(F)F)cc2)sc2c1CCC1(C2)OCCO1", "UACC-62 melanoma", "label 0"),
    ("CCOc1cc2c(Cl)ncnc2c(OCC)c1OCC", "UACC-62 melanoma", "label 0"),
]

Lab log entry: `COc1ccc(-n2c(=O)sc3c(Cl)nc(C)nc32)c(OC)c1` — outcome as called in the assay?
label 0

Now consider O=C1c2c(Cl)c(Cl)c(Cl)c(Cl)c2C(=O)C2(Cl)CC=CCC12Cl (configuration not stated) .
label 0

Now consider `CC(C)(C)OC(=O)NCCc1ccc(N=C=S)cc1` .
label 0

Now consider NC1N=C(SCC(=O)N2CCN(c3cc4c(cc3F)c(=O)c(C(=O)O)cn4C3CC3)CC2)NC(=O)/C1=C/c1ccc(Cl)cc1 (configuration not stated) .
label 0

Now consider `COc1cc(-c2nn(-c3cccc(NC(=O)c4cccc(C(F)(F)F)c4)c3)cc2-c2ccncc2)ccc1Cl` .
label 0

* * *

Test system: M14 melanoma
Assay: NCI-60 one-dose screen, 48 h (100 = growth as untreated, 0 = no growth, -100 = all killed)
Settings: 10 µM unless noted
Protocol: Growth inhibition of the M14 human tumor cell line is measured as a screen for anti-cancer activity. Cells are grown in 96 well plates and exposed to the test compound for 48 hours. Compounds are tested at a single concentration, which is 10^-5 M for most compounds. The reported endpoint is percent growth (GI% or GIPRCNT), where numbers from 0 - 100% represent growth inhibition, and numbers from -100% - 0 represent cell death. For example, a value of 40 represents 60% growth inhibition. […]
This is part of a sample that, as a whole, favours compounds with a hit. Of some 83,000 tested, about 20% had one in any assay.
Response field label: string, one of 1 (yes) (growth strictly below 60%) or 0 (no).

# compound, class
data = [
    ("COc1ccc(Nc2nn3c(C)cc(C)nc3c2C(=O)Nc2ccc(C)cc2)c(OC)c1", "0 (no)"),
]

For `CCc1cnc(=S)n(-c2ccccc2)c1` , is the recorded growth below the cut-off of 60%?
0 (no)

Now consider COc1ccc2c(c1)OC1=C(C(=O)OC1)C2c1cc(OC)c2c(c1)OCO2 (stereo unspecified) .
1 (yes)

Now consider `CC(=O)Nc1ccc(S(=O)(=O)n2ccc(-c3ccc4c(c3)CCC(C)(C)O4)n2)cc1` .
0 (no)

Now consider `CCn1c2ccccc2c2cc(NC(=O)Nc3ccc([N+](=O)[O-])cc3C)ccc21` .
1 (yes)

Now consider `COc1ccc2c(c1)[nH]c(=O)c1c3cc(C)c(C)cc3cn21` .
1 (yes)

Now consider `CC(=O)Oc1cccc(S(=O)(=O)n2cc(C(=O)C(=O)Nc3ccncc3)c3ccccc32)c1` .
0 (no)

Now consider `CC(=O)Oc1csc(N(C(C)=O)c2cccc(C(F)(F)F)c2)n1` .
0 (no)

Now consider `NC(=O)c1c(NC(=S)Nc2ccc(OC(F)(F)F)cc2)sc2c1CCC1(C2)OCCO1` .
0 (no)

* * *

Test system: OVCAR-4 ovarian
Test: NCI-60 one-dose screen, 48 h
Details: 10 µM unless noted
This is part of a sample that, as a whole, favours compounds with a hit. Of some 83,000 tested, about 20% had one in any assay. Active and inactive are the calls of the source. The calls were made as follows: active = growth percent below 10; inactive = the rest.
Give one outcome, nothing more. List: 1 for active, -1 for inactive

# compound, class
data = [
    ("O=C(Nc1ccc(NCCN2CCOCC2)nc1)c1ccc([N+](=O)[O-])cc1", -1),
]

Lab log entry: `O=C(O)c1nc(-c2ccccc2)oc1N1CCOCC1` — outcome as called in the assay?
-1

Now consider `O=C(/C=C\c1cccc([N+](=O)[O-])c1)/C=C/c1cccc([N+](=O)[O-])c1` .
-1

Now consider CN1C(=O)N(C)C2C1NN=c1s/c(=C\c3cccnc3)c(=O)n12 (stereo unspecified) .
-1

* * *

Tested on: MDA-MB-435 melanoma
Test: NCI-60 one-dose screen, 48 h (100 = growth as untreated, 0 = no growth, -100 = all killed)
Details: 10 µM unless noted
Compounds without any hit were thinned out: in the full panel of roughly 83,000, 20% have a hit.
endpoint_name: growth (%)
One number for each entry, in %.

Some entries whose results are on file:
# compound, unit_annotation, growth
records = [
    ("COc1ccc(S(=O)(=O)NCCCNc2nccc(-n3ccc4cccnc43)n2)cc1", "%", 98.4),
    ("O=S1(=O)CCC(N(/N=C/c2ccco2)c2ccccc2)C1 (stereo unspecified)", "%", 107),
    ("O=[N+]([O-])c1ccc(OCCCOc2ccccc2)cc1", "%", 99),
    ("CCN(CC)CCC(CNc1ccnc2cc(Cl)ccc12)c1ccc(Cl)cc1 (stereo unspecified)", "%", -72.2),
    ("NC(=S)N/N=C(/CCN1CCCC1)CC(C1=C(O)C2=CCCCC2OC1=O)c1ccccc1 (stereo unspecified)", "%", 90.7),
    ("CN(C[C@H]1Cc2c(cccc2N2CCN(c3ncccn3)CC2)CN1)[C@H]1CCCc2cccnc21", "%", 40.7),
    ("O=C(/C=C/c1ccccc1)c1cccc(O)c1", "%", 57.1),
    ("CC(C)OC(=O)N1CCOCC1", "%", 117),
    ("CC12CCC3C4(C)COC(c5ccccc5Cl)OC4CCC3(C)C1CC(C1=CCOC1=O)O2 (stereo unspecified)", "%", 54.2),
    ("Cc1ccc(NS(=O)(=O)c2cc(C)ccc2C)cc1", "%", -24),
]

With those in mind, consider the next compound.
Look up growth: `COc1ccc(-c2nc(/C=N/Nc3cc(C)nc4ccc(Cl)cc34)c(C)o2)cc1`
-97.1

* * *

Provide the reported growth of each item.
Tested on: SF-295 CNS
Experiment: NCI-60 one-dose screen, 48 h (100 = growth as untreated, 0 = no growth, -100 = all killed)
Settings: 10 µM unless noted
Procedure: Cells are grown in 96 well plates and exposed to the test compound for 48 hours. Compounds are tested at a single concentration, which is 10^-5 M for most compounds. The reported endpoint is percent growth (GI% or GIPRCNT), where numbers from 0 - 100% represent growth inhibition, and numbers from -100% - 0 represent cell death. For example, a value of 40 represents 60% growth inhibition. A value of 0 means no net growth occurred over the course of the experiment. […]
Compounds without any hit were thinned out: in the full panel of roughly 83,000, 20% have a hit.
One number for each entry, in %.

Some entries whose results are on file:
# compound, growth / %
data = [
    ("c1coc(CNc2ccnc(Nc3ccc(OCCN4CCCCC4)cc3)n2)c1", 95.1),
    ("Cc1ccc(CSC(=N)N)cc1C", 111),
    ("C/C(=C\\c1ccc(OCC(=O)O)c(Cl)c1Cl)[N+](=O)[O-]", 116),
    ("c1cc2[nH]ncc2cc1-c1nc2ccc3[nH]ncc3c2c2c1CCC2", 80.6),
]

Give one value of growth per listed compound.
1. O=c1ccn(C2CC(O)C(O)C(CO)O2)c(=O)[nH]1 (stereo unspecified)
2. COc1ccc(-c2nc(-c3nc4cc(C)c(C)cc4[nH]3)cc3c2[nH]c2ccccc23)cc1

[112, 25.4]

* * *

Tested on: OVCAR-3 ovarian
Test: NCI-60 one-dose screen, 48 h (100 = growth as untreated, 0 = no growth, -100 = all killed)
Details: 10 µM unless noted
This is part of a sample that, as a whole, favours compounds with a hit. Of some 83,000 tested, about 20% had one in any assay.
endpoint_name: growth (%)
Give bare numbers, in %.

Some entries whose results are on file:
# chem_smiles, unit_annotation, test_value
measured = [
    ("Cc1ccc(Nc2nnc(-c3ccc(Cl)cc3)o2)c(C)c1", "%", 82.4),
    ("COc1cc(-c2ncn(/C=C\\C(=O)OC(C)C)n2)cc(C(F)(F)F)c1", "%", -42.1),
    ("Cc1ccc(S(=O)(=O)C2=C3C(=C(c4ccccc4)c4ccccc43)CN(S(=O)(=O)c3ccc(C)cc3)C2)cc1", "%", 56.9),
    ("COc1ccc(-c2ccc(C)n2-c2ccc(-c3nc4ccccc4s3)cc2)cc1", "%", 107),
]

With those in mind, consider the next compound.
Look up growth: `CC1(c2ccc(Cl)cc2)OC(=O)CC(=O)O1`
104
